target: MmCLK1 (Mus musculus); test: ADP-Glo kinase assay; format: biochemical, Mus musculus (Mm); settings: 1 μM; mean n = 2; % of maximum activity of DMSO control; read-out: % Residual activity at 1 μM CLK1
attribute.measured: remaining activity at 1 µM (%)

- mol: "COc1ccc2c(c1)[nH]c1c(=O)[nH]c3ccc(OC)cc3c12"
  unit.abbreviation: "%"
  remaining activity at 1 µM: 12
- mol: "COc1ccc2c(c1)[nH]c1c(=O)[nH]c3ccccc3c12"
  unit.abbreviation: "%"
  remaining activity at 1 µM: 49
- mol: "O=c1[nH]c2ccccc2c2c1[nH]c1ccccc12"
  unit.abbreviation: "%"
  remaining activity at 1 µM: 67

a = COc1ccc2[nH]c3c(=O)[nH]c4ccccc4c3c2c1
b = COc1ccc2c(c1)c1c3cc(O)ccc3[nH]c(=O)c1n2C
Field: lower remaining activity at 1 µM | Options: a / b # respond with the chosen item's label
b

====

biological target: HsPIM1 (Homo sapiens); test: ADP-Glo kinase assay; type: biochemical, Homo sapiens (Hs); details: mean n = 2, % of maximum activity of DMSO control, read-out: % Residual activity at 1 μM PIM1
Sequence (P11309 whole entry): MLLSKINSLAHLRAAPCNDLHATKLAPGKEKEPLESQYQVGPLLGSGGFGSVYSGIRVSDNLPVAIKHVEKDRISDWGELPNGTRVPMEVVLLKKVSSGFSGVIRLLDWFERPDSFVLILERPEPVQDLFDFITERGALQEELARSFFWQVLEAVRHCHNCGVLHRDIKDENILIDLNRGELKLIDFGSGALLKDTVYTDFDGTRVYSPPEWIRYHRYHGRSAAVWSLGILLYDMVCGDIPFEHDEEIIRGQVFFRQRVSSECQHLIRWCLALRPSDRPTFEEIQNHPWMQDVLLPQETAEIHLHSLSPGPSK
attribute.measured: remaining activity at 1 µM (%)

For orientation, consider the following solved cases.
- mol: "O=c1[nH]c2ccc(O)cc2c2c1[nH]c1ccccc12"
  tgt: "HsPIM1 (Homo sapiens)"
  remaining activity at 1 µM (%): 63
- mol: "COc1ccc2c(c1)c1c3cc(N(C)C)ccc3[nH]c(=O)c1n2C"
  tgt: "HsPIM1 (Homo sapiens)"
  remaining activity at 1 µM (%): 82
- mol: "O=c1[nH]c2ccccc2c2c1[nH]c1ccccc12"
  tgt: "HsPIM1 (Homo sapiens)"
  remaining activity at 1 µM (%): 86
- mol: "COc1ccc2c(c1)[nH]c1c(=O)[nH]c3ccccc3c12"
  tgt: "HsPIM1 (Homo sapiens)"
  remaining activity at 1 µM (%): 48
- mol: "COc1ccc2[nH]c3c(=O)[nH]c4ccc(O)cc4c3c2c1"
  tgt: "HsPIM1 (Homo sapiens)"
  remaining activity at 1 µM (%): 22
- mol: "O=c1[nH]c2ccc(O)cc2c2c1[nH]c1ccc(F)cc12"
  tgt: "HsPIM1 (Homo sapiens)"
  remaining activity at 1 µM (%): 38
- mol: "COc1ccc2[nH]c3c(=O)[nH]c4cc(OC)c(OC)cc4c3c2c1"
  tgt: "HsPIM1 (Homo sapiens)"
  remaining activity at 1 µM (%): 29
- mol: "COc1ccc2c(c1)c1c3cc(O)ccc3[nH]c(=O)c1n2C"
  tgt: "HsPIM1 (Homo sapiens)"
  remaining activity at 1 µM (%): 75

A = COc1ccc2[nH]c3c(=O)[nH]c4ccc(N)cc4c3c2c1
B = COc1ccc2[nH]c(=O)c3[nH]c4ccccc4c3c2c1
Sorting by remaining activity at 1 µM in descending order, would A or B appear first? # respond with the chosen item's label
A
(A: 65%, B: 32%)

====

molecular target: RnDYRK1A (Rattus norvegicus, UniProt Q63470); assay: ADP-Glo kinase assay; assay type: biochemical, Rattus norvegicus (Rn); details: mean n = 2; % of maximum activity of DMSO control; read-out: % Residual activity at 1 μM DYRK1A
attribute.measured: remaining activity (%)

For orientation, consider the following solved cases.
- compound: "COc1ccc2[nH]c3c(=O)[nH]c4cc(O)ccc4c3c2c1 [Compound 54]"
  unit.abbreviation: "%"
  reading: 2
- compound: "COc1ccc2c(c1)[nH]c(=O)c1[nH]c3ccc(OC)cc3c12 [Compound 50]"
  unit.abbreviation: "%"
  reading: 5
- compound: "COc1ccc2[nH]c3c(=O)[nH]c4cc(OC)c(OC)cc4c3c2c1 [Compound 52]"
  unit.abbreviation: "%"
  reading: 5

A = COc1ccc2[nH]c3c(=O)[nH]c4ccc(C(F)(F)F)cc4c3c2c1 [Compound 53]
B = O=c1[nH]c2ccc(O)cc2c2c1[nH]c1ccc(F)cc12 [Compound 61]
Sorting by remaining activity in descending order, would A or B appear first? # respond with the chosen item's label
A

====

biological target: MmCLK1 (Mus musculus, UniProt P22518); assay: ADP-Glo kinase assay; type: biochemical, Mus musculus (Mm); conditions: IC50 CLK1/IC50 Haspin
Sequence (P22518 whole entry): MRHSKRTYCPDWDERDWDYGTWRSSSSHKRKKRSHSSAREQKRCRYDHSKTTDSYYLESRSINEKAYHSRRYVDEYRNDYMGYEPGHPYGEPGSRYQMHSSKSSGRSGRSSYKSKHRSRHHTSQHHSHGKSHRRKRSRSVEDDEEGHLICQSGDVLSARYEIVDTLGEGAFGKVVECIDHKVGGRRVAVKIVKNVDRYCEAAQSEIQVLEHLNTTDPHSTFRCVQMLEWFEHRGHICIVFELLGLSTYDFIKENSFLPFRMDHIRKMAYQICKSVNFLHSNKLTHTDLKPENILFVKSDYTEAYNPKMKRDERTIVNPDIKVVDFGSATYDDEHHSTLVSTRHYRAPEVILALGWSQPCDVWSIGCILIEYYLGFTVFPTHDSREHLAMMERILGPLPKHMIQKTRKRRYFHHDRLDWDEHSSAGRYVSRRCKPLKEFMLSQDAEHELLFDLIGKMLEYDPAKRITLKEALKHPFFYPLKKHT
attribute.measured: Selectivity index CLK1/Haspin

- mol: "COc1ccc2[nH]c(=O)c3[nH]c4ccc(OC)cc4c3c2c1"
  tgt: "MmCLK1 (Mus musculus, UniProt P22518)"
  Selectivity index CLK1/Haspin: 3
- mol: "COc1ccc2[nH]c3c(=O)[nH]c4cc(O)ccc4c3c2c1"
  tgt: "MmCLK1 (Mus musculus, UniProt P22518)"
  Selectivity index CLK1/Haspin: 21
- mol: "COc1ccc2[nH]c3c(=O)[nH]c4cc(OC)c(OC)cc4c3c2c1"
  tgt: "MmCLK1 (Mus musculus, UniProt P22518)"
  Selectivity index CLK1/Haspin: 5
- mol: "COc1ccc2c(c1)[nH]c1c(=O)[nH]c3ccc(OC)cc3c12"
  tgt: "MmCLK1 (Mus musculus, UniProt P22518)"
  Selectivity index CLK1/Haspin: 3
- mol: "COc1ccc2c(c1)[nH]c(=O)c1[nH]c3ccc(OC)cc3c12"
  tgt: "MmCLK1 (Mus musculus, UniProt P22518)"
  Selectivity index CLK1/Haspin: 13
- mol: "COc1ccc2[nH]c3c(=O)[nH]c4ccc(O)cc4c3c2c1"
  tgt: "MmCLK1 (Mus musculus, UniProt P22518)"
  Selectivity index CLK1/Haspin: 17
- mol: "COc1ccc2[nH]c3c(=O)[nH]c4ccc(N)cc4c3c2c1"
  tgt: "MmCLK1 (Mus musculus, UniProt P22518)"
  Selectivity index CLK1/Haspin: 15
- mol: "COc1ccc2[nH]c3c(=O)[nH]c4ccc(NC(C)=O)cc4c3c2c1"
  tgt: "MmCLK1 (Mus musculus, UniProt P22518)"
  Selectivity index CLK1/Haspin: 8
- mol: "COc1ccc2c(c1)c1c3cc(O)ccc3[nH]c(=O)c1n2C"
  tgt: "MmCLK1 (Mus musculus, UniProt P22518)"
  Selectivity index CLK1/Haspin: 7
- mol: "COc1ccc2[nH]c(=O)c3[nH]c4ccccc4c3c2c1"
  tgt: "MmCLK1 (Mus musculus, UniProt P22518)"
  Selectivity index CLK1/Haspin: 7

P = COc1ccc2[nH]c(=O)c3[nH]c4ccc(F)cc4c3c2c1
Q = O=c1[nH]c2ccc(O)cc2c2c1[nH]c1ccc(F)cc12
R = O=c1[nH]c2ccc(O)cc2c2c1[nH]c1ccccc12
Descending sort on Selectivity index CLK1/Haspin required. // list labels; follow requested order
Q, P, R

====

target: HsGSK3β (Homo sapiens); assay: ADP-Glo kinase assay; format: biochemical, Homo sapiens (Hs); conditions: mean n = 2, % of maximum activity of DMSO control, read-out: % Residual activity at 1 μM GSK3β
Sequence (P49841 whole entry): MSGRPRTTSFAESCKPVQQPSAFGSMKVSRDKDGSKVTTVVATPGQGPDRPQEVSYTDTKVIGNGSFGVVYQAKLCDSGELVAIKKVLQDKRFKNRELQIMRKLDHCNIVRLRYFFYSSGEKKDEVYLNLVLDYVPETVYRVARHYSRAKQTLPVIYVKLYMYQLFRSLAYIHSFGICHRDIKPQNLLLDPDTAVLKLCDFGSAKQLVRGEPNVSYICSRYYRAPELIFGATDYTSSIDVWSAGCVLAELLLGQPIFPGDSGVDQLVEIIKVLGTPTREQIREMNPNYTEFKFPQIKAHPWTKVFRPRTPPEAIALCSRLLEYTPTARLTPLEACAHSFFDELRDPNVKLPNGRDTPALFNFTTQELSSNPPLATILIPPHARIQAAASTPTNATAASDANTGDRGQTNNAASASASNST
attribute.measured: remaining activity at 1 µM (%)

- mol: "COc1ccc2[nH]c3c(=O)[nH]c4ccc(C(F)(F)F)cc4c3c2c1"
  tgt: "HsGSK3β (Homo sapiens)"
  attribute.measured: "remaining activity at 1 µM"
  reading: 63
- mol: "COc1ccc2[nH]c(=O)c3[nH]c4ccccc4c3c2c1"
  tgt: "HsGSK3β (Homo sapiens)"
  attribute.measured: "remaining activity at 1 µM"
  reading: 86
- mol: "O=c1[nH]c2ccc(O)cc2c2c1[nH]c1ccc(F)cc12"
  tgt: "HsGSK3β (Homo sapiens)"
  attribute.measured: "remaining activity at 1 µM"
  reading: 71

====

Molecular target: HsCdk2/Cyc A (Homo sapiens)
Assay: ADP-Glo kinase assay
Format: biochemical, Homo sapiens (Hs)
Conditions: mean n = 2, % of maximum activity of DMSO control, read-out: % Residual activity at 1 μM CDK2
Description: Kinase activities were determined using the ADP-Glo methodology (ADP-Glo Kinase Assay; Promega) according to the assay described by Nguyen et al.[32] except for MmCLK1. The later was assayed in the following buffer: 10 mM MgCl2, 1 mM EGTA, 1 mM DTT, 25 mM Tris-HCl pH 7.5, 50 µg/ml heparin, 0.15 mg/ml BSA, with 0.027 µg/µl of the following peptide: GRSRSRSRSRSR as substrate.
attribute.measured: remaining activity at 1 µM (%)

- mol: "COc1ccc2c(c1)c1c3cc(C(F)(F)F)ccc3[nH]c(=O)c1n2C"
  tgt: "HsCdk2/Cyc A (Homo sapiens)"
  remaining activity at 1 µM / %: 67
- mol: "COc1ccc2[nH]c(=O)c3[nH]c4ccccc4c3c2c1"
  tgt: "HsCdk2/Cyc A (Homo sapiens)"
  remaining activity at 1 µM / %: 80
- mol: "O=c1[nH]c2cc(O)ccc2c2c1[nH]c1ccccc12"
  tgt: "HsCdk2/Cyc A (Homo sapiens)"
  remaining activity at 1 µM / %: 61
- mol: "COc1ccc2[nH]c(=O)c3[nH]c4ccc(OC)cc4c3c2c1"
  tgt: "HsCdk2/Cyc A (Homo sapiens)"
  remaining activity at 1 µM / %: 62
- mol: "COc1ccc2[nH]c3c(=O)[nH]c4ccc(N)cc4c3c2c1"
  tgt: "HsCdk2/Cyc A (Homo sapiens)"
  remaining activity at 1 µM / %: 72
- mol: "O=c1[nH]c2ccc(O)cc2c2c1[nH]c1ccc(F)cc12"
  tgt: "HsCdk2/Cyc A (Homo sapiens)"
  remaining activity at 1 µM / %: 57

# credit: paper PMC9186362
